test: folding stability dG unfold (combined trypsin and chymotrypsin); higher = more stable
RESULT_TYPE: folding stability dG unfold (kcal/mol)
Give just the number in kcal/mol; leave the unit off.

[[record]]
biopolymer_sequence = "SAGGSAGGSAGGVEIPPDKPVAIEVTSPEGPTATLIFDPKDGTVTVIEGGKPVEVPAEDFSAGGSAGGSAGG [r7_937_TrMRF]"
quantity_unit = "kcal/mol"
measured_result = -0.377

[[record]]
biopolymer_sequence = "SAGGSAVPTVRATFRYPDGLVAELEVPVLPDGTPRVVLRVGGVEREVSLEELARLPPEFELVSVDPSAGGSA [r2_431_TrMRF]"
quantity_unit = "kcal/mol"
measured_result = 0.826


Notebook: SAGGSAGGSAGGKIENWKITKVETKLHPNGFPYLVIELSNEKKKIRVLIYPNGELKAFEESAGGSAGGSAGG [r7_675_TrMRF] , folding stability dG unfold read as 3.82
